Recorded measurements of RP-LC retention time, one per entry
Measurement protocol: gradient 5% acetonitrile 3 min, to 50% in 2 min, to 85% in 15 min, held 3 min, 100 µL/min
Details: column: Zorbax Extend-C18 2.1 x 50 mm; eluents: water / acetonitrile, 0.1% formic acid
Give your result in s as a bare value.

# annotated cases, reported RP-LC retention time shown
>>> df
                                   compound  endpoint_result
0  Cc1ccc(S(=O)(=O)C(F)(F)F)cc1N1C(=O)c2ccccc2C1=O              942
1  CCOc1cccc(-c2noc(Cn3c(=O)n(Cc4ccc(OC)cc4)c(=O)c4sccc43)n2)c1             1060
2  Cc1sc(NC(=O)c2ccccc2)nc1-c1ccc2c(c1)N(C)C(=O)CO2              952
3  CC1CCCN(c2ccn3c(=O)n(CC(=O)NCc4ccc(F)cc4F)nc3n2)C1 (centres undefined)              772
4  CN(CCc1ccccn1)C(=O)C1CCN(c2cnn(C)c(=O)c2)CC1              553
5  Cc1nc(C)c(-c2nnc(NC(=O)c3cc(=O)c4ccccc4o3)o2)s1              653

Challenge: So what does the record say about RP-LC retention time for CCOc1ccc(C(=O)NCC(=O)Nc2nc3ccccc3[nH]2)cc1 ?
Response given: 648

Challenge: So what does the record say about RP-LC retention time for O=C(NCc1ccco1)C1CCCN(C(=O)c2cccn2-c2cccnc2)C1 (centres undefined) ?
Response given: 600

Challenge: So what does the record say about RP-LC retention time for CC1CC(=O)N(Cc2c(F)cccc2Cl)c2ccccc2N1 (centres undefined) ?
Response given: 897

----------
Measurement protocol: gradient 5% acetonitrile 3 min, to 50% in 2 min, to 85% in 15 min, held 3 min, 100 µL/min
Details: column: Zorbax Extend-C18 2.1 x 50 mm; eluents: water / acetonitrile, 0.1% formic acid
Recorded measurements of RP-LC retention time, one per entry
Give your result in s as a bare value.

# annotated cases, reported RP-LC retention time shown
>>> print(df.to_string())
                                   compound  endpoint_result
0  CCOC(=O)c1cccc(Nc2c(-c3ccc(OC)cc3)nc3cnccn23)c1              668
1  CC1OC2(CS1)CN1CCC2CC1 (stereo not given)              619
2          O=C(NC1CCCCCC1)c1cc(C2CC2)[nH]n1              792
3  CCOC(=O)N1CCN(C(=O)Cc2c(C)nn(-c3nc(-c4ccc(C)cc4)cs3)c2C)CC1             1070

Now take the following compound into account.
Challenge: So what does the record say about RP-LC retention time for O=C(Nc1ccc(C(F)(F)F)cc1)NC1CCN(c2cc(N3CCOCC3)cnn2)C1 (stereo not given) ?
Response given: 685

----------
Measurement protocol: gradient 5% acetonitrile 3 min, to 50% in 2 min, to 85% in 15 min, held 3 min, 100 µL/min
Details: column: Zorbax Extend-C18 2.1 x 50 mm; eluents: water / acetonitrile, 0.1% formic acid
Recorded measurements of RP-LC retention time, one per entry

# annotated cases, reported RP-LC retention time shown
In [3]: df
Out[3]:
                                   compound           metric_name  endpoint_result
0   Cn1c(=O)c2c(nc(OCCc3ccccc3)n2C)n(C)c1=O  RP-LC retention time            909 s
1  CCc1noc(NC(C)=O)c1-c1ccc(OC)c(S(=O)(=O)N2CC=C(c3ccccc3)CC2)c1  RP-LC retention time            918 s
2  COc1cccc(Nc2c(-c3ccc(Cl)cc3)nc3cnccn23)c1  RP-LC retention time            961 s

Challenge: So what does the record say about RP-LC retention time for O=C(Nc1nc(-c2ccncc2)cs1)c1ccc(NS(=O)(=O)c2ccccc2)cc1 ?
Response given: 589 s

Challenge: So what does the record say about RP-LC retention time for O=C(Cn1ccc2ccccc21)NCCn1nc(-n2ccnc2)ccc1=O ?
Response given: 546 s

Challenge: So what does the record say about RP-LC retention time for Cc1cc(C)cc(NC(=O)Nc2ccc3nncn3c2)c1 ?
Response given: 738 s

Challenge: So what does the record say about RP-LC retention time for COc1ccc(-c2ncc3c(n2)CCN(C(=O)c2ccc(F)cc2Cl)C3)cc1 ?
Response given: 971 s

Challenge: So what does the record say about RP-LC retention time for COc1cc(OC)c(OC)cc1CN1CC[C@]2(CO)CN(Cc3ccccc3)C[C@@H]2C1 ?
Response given: 597 s

Challenge: So what does the record say about RP-LC retention time for CCOC(=O)c1c(C)[nH]c(CCC(=O)NCCN(C)C)c1C ?
Response given: 591 s
